Tgt: T1, Full-length Seb1 with C-terminal His8-tag (S. pombe, UniProt Q9UTE3 1-620)
T1 construct: Seb1, S. pombe, full length; fractions containing monomeric Seb1 were used; also called Seb1(full-length)-His8; recombinant Seb1; source: E. coli Rosetta, purified (Ni-NTA, Superdex 200); not shown: His8, C-terminal, kept
T1 sequence (looked up): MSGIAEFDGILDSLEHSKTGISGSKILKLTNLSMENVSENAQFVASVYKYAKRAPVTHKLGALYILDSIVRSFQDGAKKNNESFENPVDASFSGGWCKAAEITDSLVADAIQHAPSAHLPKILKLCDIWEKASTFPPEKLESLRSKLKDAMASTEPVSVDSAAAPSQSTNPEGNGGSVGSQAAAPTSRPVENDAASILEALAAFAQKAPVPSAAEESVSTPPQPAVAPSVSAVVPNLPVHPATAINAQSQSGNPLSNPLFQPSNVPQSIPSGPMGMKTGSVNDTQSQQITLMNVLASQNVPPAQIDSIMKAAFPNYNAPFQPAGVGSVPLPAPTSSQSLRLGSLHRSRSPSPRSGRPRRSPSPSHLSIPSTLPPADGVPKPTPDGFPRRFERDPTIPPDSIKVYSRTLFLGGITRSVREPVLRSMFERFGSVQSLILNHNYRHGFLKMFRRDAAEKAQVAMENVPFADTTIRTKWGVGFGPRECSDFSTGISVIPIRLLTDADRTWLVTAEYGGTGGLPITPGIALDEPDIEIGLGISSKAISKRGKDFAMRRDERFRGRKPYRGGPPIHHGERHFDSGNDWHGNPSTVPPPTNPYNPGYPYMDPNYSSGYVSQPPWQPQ
Procedure Text: cross-linking; BS3 lysine-lysine cross-linking of reconstituted Seb1:Pol II (6:1 or 4:1 molar ratio) in CB buffer (50 mM HEPES pH 7.6, 150 mM NaCl), 30 min at 4 °C, mass spectrometry (pLink)
Condition Context: both partners purified

{"Binder": "Rpc10, subunit of S. pombe Pol II (natural protein, UniProt P48011 1-63, looked up, Rpc10, RNA polymerase subunit, S. pombe; stood in the assay as a subunit of m11; source: endogenous, S. pombe (Rpb9-Flag strain), purified as part of Pol II (anti-Flag M2 agarose, HiTrap Q)) MNHPTSTGGTAFNPPRPATMIYLCADCGARNTIQAKEVIRCRECGHRVMYKMRTKRMVQFEAR", "binding result": "binds"}

Value source: paper PMC6180485
